Answer each item with its documented log10 of MIC.
- System: Vaccinia virus
- protocolDescription: Inhibition of Vaccinia virus induced cytopathicity in PRK cells.
- Format: functional
- studyConditions: Orthopoxvirus vaccinia
For clarity, the numbers are log10 values of MIC expressed in µg/mL.

>  <compound>
Nc1ncnc2c1ncn2CC(O)C(=O)OC1CCCCC1 (stereo not drawn)

>  <targetOfAssay>
Vaccinia virus

>  <reported>
0.48

$$$$

Would you be so kind as to report log10 of MIC for each listed record?
1. CC(C)CCOC(=O)C(O)Cn1cnc2c(N)ncnc21 (stereo not drawn)
2. CCCCCOC(=O)C(O)Cn1cnc2c(N)ncnc21 (stereo not drawn)
3. Nc1ncnc2c1ncn2CC(O)C(=O)OCCO (stereo not drawn)
4. CCC(C)OC(=O)C(O)Cn1cnc2c(N)ncnc21 (stereo not drawn)

1. 1.00
2. 1.85
3. 1.85
4. 0.48

====

- Test system: Human respirovirus 3
- protocolDescription: Inhibition of parainfluenza virus-3 induced cytopathicity in vero cells.
- Format: functional
observable: log10 of MIC (log10 of the value in µg/mL)
For clarity, the numbers are log10 values of MIC expressed in µg/mL.

Would you be so kind as to report log10 of MIC for each listed record?
1. CCCOC(=O)C(O)Cn1cnc2c(N)ncnc21 (stereo unspecified)
2. CCC(C)OC(=O)C(O)Cn1cnc2c(N)ncnc21 (stereo unspecified)
3. COC(=O)C(O)Cn1cnc2c(N)ncnc21 (stereo unspecified)
4. CCCCOC(=O)C(O)Cn1cnc2c(N)ncnc21 (stereo unspecified)

1: 2.00; 2: 2.30; 3: 1.30; 4: 1.85

Would you be so kind as to report log10 of MIC for each listed record?
1. COCCOC(=O)C(O)Cn1cnc2c(N)ncnc21 (stereo unspecified)
2. CCCCCOC(=O)C(O)Cn1cnc2c(N)ncnc21 (stereo unspecified)
3. CCCCCCCCOC(=O)C(O)Cn1cnc2c(N)ncnc21 (stereo unspecified)
4. CCOC(=O)C(O)Cn1cnc2c(N)ncnc21 (stereo unspecified)
5. Nc1ncnc2c1ncn2CC(O)C(=O)OCc1ccco1 (stereo unspecified)
6. Nc1ncnc2c1ncn2C[C@H](O)CO [(S)-DHPA]
7. CC(C)COC(=O)C(O)Cn1cnc2c(N)ncnc21 (stereo unspecified)

1: 2.48; 2: 1.85; 3: 1.18; 4: 1.30; 5: 1.18; 6: 1.30; 7: 1.30

Would you be so kind as to report log10 of MIC for each listed record?
1. CC(C)OC(=O)C(O)Cn1cnc2c(N)ncnc21 (stereo unspecified)
2. CC(C)(C)OC(=O)C(O)Cn1cnc2c(N)ncnc21 (stereo unspecified)

[1.85, 2.18]

====

Answer each item with its documented MIC.
- Test system: Vesicular stomatitis virus
- protocolDescription: Inhibition of Vesicular stomatitis virus induced cytopathicity in HeLa cells.
- Assay type: functional
Answers are plain numbers, in µg/mL.

>  <compound>
CC(C)CCOC(=O)C(O)Cn1cnc2c(N)ncnc21 (stereo not drawn)

>  <targetOfAssay>
Vesicular stomatitis virus

>  <reported>
3

$$$$

Would you be so kind as to report MIC for each listed record?
1. Nc1ncnc2c1ncn2C[C@H](O)CO [(S)-DHPA]
2. CCCOC(=O)C(O)Cn1cnc2c(N)ncnc21 (stereo not drawn)

30
50

====

- Test system: Vaccinia virus
- protocolDescription: Inhibition of Vaccinia virus induced cytopathicity in PRK cells.
- Format: functional
- studyConditions: Orthopoxvirus vaccinia
observable: MIC
In your response, the unit should come after the numeric value.

Below, each entry is followed by its recorded MIC result.
>  <compound>
CCCOC(=O)C(O)Cn1cnc2c(N)ncnc21 (stereo not drawn)

>  <reported>
3 µg/mL

$$$$
>  <compound>
Nc1ncnc2c1ncn2CC(O)C(=O)OCc1ccco1 (stereo not drawn)

>  <reported>
10 µg/mL

$$$$

State the recorded MIC for this entry: CC(C)OC(=O)C(O)Cn1cnc2c(N)ncnc21 (stereo not drawn) 3 µg/mL
